Literature survey of pKi (system: 5-hydroxytryptamine receptor 1A (Rattus norvegicus, UniProt P19327)).
Sequence (P19327 whole entry): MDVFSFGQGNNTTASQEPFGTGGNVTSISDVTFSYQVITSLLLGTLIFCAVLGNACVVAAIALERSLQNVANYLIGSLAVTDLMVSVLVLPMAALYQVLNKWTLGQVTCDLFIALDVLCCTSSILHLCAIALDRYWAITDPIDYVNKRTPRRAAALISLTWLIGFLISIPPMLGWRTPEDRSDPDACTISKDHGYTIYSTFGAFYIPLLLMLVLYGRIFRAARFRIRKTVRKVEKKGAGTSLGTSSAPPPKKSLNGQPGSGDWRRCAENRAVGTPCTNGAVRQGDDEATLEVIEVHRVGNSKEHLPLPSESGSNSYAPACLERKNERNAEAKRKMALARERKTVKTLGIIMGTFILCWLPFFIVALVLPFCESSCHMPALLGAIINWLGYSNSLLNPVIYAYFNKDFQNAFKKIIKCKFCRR
pKi: −log10 of the molar value.
recorded metric: pKi

// worked examples, pKi included
query: Name the recorded pKi of the item COc1ccccc1N1CCN(CCN(C(=O)C2CCCCC2)c2ccccc2[N+](=O)[O-])CC1 in your answer.
result: 9.15

query: Tell me its pKi given Cc1nc2n(c(=O)c1CCN1CCC(c3noc4cc(F)ccc34)CC1)CCCC2O (stereo not given) as the entry.
result: 6.42

query: Respond only with pKi recorded for CCCN(CCC)C[C@@H]1C[C@@H]1c1cccc(OC)c1
result: 6.41

1 = CCN(CC)C[C@H]1C[C@@H]1c1ccccc1OC
2 = NC(=O)c1ccc(F)c2c1CC(N(C1CCC1)C1CCC1)CO2 (stereo not given)
query: Compare 1 and 2 and name the one whose reported pKi is smaller. Answer by stating the label of the chosen item.
result: 1
